Source: paper PMC10252016

- TGT: D321G (Homo sapiens, UniProt P28482, D321G)
- Construct: gene MAPK1; recombinant ERK2 D321G
- ASSAY NOTES: biochemical
- Design: Differential scanning fluorimetry, SYPRO Orange, 2 uM ERK2, melting temperature shift with 12 uM inhibitor
- EXPERIMENTAL CONDITIONS: read-out: ΔTm D321G
QUANTITY KIND: ΔTm at 12 µM (°C)
Respond with the bare value in °C.

*Q* State the recorded ΔTm at 12 µM for this entry: O=C1Nc2cc3[nH]nc(-c4ccncc4)c3cc2CN1Cc1ccccc1
*A* 13.1

*Q* Item: CC(C)Nc1cc(-c2c[nH]c(C(=O)N[C@H](CO)c3cccc(Cl)c3)c2)c(Cl)cn1
*A* 9.1

*Q* Item: O=C(Nc1ccc2[nH]nc(-c3ccncc3)c2c1)[C@@H]1CCN(CC(=O)N2CCN(c3ccc(-c4ncccn4)cc3)CC2)C1
*A* 12.2

*Q* Item: Nc1[nH]nc2nnc(-c3c(-c4ccccc4)nn4ccccc34)cc12
*A* 4.6

*Q* Item: COC[C@H]1Cn2cc(-c3nc(Nc4ccnn4C)ncc3C)nc2C(=O)N1Cc1ccc(F)c(F)c1
*A* 13.9

*Q* Item: Cn1nccc1Nc1nccc(-c2cc3c(s2)C(C)(C)N(CCN2CCOCC2)C3=O)n1
*A* 10.8

* * *

- TGT: D321E (Homo sapiens, UniProt P28482, D321E)
- Construct: gene MAPK1; recombinant ERK2 D321E
- ASSAY NOTES: biochemical
- Parameters: Differential scanning fluorimetry, SYPRO Orange, 2 uM ERK2, melting temperature shift with 12 uM inhibitor
- EXPERIMENTAL CONDITIONS: read-out: ΔTm D321E
For each entry below, report its ΔTm at 12 µM value.
Respond with the bare value in °C.

*Q* State the recorded ΔTm at 12 µM for this entry: O=C1Nc2cc3[nH]nc(-c4ccncc4)c3cc2CN1Cc1ccccc1
*A* 12.8

*Q* Item: O=C(Nc1ccc2[nH]nc(-c3ccncc3)c2c1)[C@@H]1CCN(CC(=O)N2CCN(c3ccc(-c4ncccn4)cc3)CC2)C1
*A* 11.7

*Q* Item: CC(C)Nc1cc(-c2c[nH]c(C(=O)N[C@H](CO)c3cccc(Cl)c3)c2)c(Cl)cn1
*A* 8.8

*Q* Item: Cn1nccc1Nc1nccc(-c2cc3c(s2)C(C)(C)N(CCN2CCOCC2)C3=O)n1
*A* 10.3

*Q* Item: COC[C@H]1Cn2cc(-c3nc(Nc4ccnn4C)ncc3C)nc2C(=O)N1Cc1ccc(F)c(F)c1
*A* 13.7

*Q* Item: Nc1[nH]nc2nnc(-c3c(-c4ccccc4)nn4ccccc34)cc12
*A* 3.7

* * *

- TGT: extracellular-signal-regulated kinase 2 (ERK2) (Homo sapiens)
- Construct: gene MAPK1; recombinant ERK2 wild-type
- ASSAY NOTES: biochemical
- Design: Differential scanning fluorimetry, SYPRO Orange, 2 uM ERK2, melting temperature shift with 12 uM inhibitor
- EXPERIMENTAL CONDITIONS: read-out: ΔTm WT
Mark each entry Criterion met if its ΔTm at 12 µM sits below 9 °C, and Criterion not met for all others.

*Q* Record CC(C)Nc1cc(-c2c[nH]c(C(=O)N[C@H](CO)c3cccc(Cl)c3)c2)c(Cl)cn1 : is its ΔTm at 12 µM strictly below 9 °C?
*A* Criterion met

*Q* Item: Cn1nccc1Nc1nccc(-c2cc3c(s2)C(C)(C)N(CCN2CCOCC2)C3=O)n1
*A* Criterion not met

*Q* Item: O=C(Nc1ccc2[nH]nc(-c3ccncc3)c2c1)[C@@H]1CCN(CC(=O)N2CCN(c3ccc(-c4ncccn4)cc3)CC2)C1
*A* Criterion not met

*Q* Item: COC[C@H]1Cn2cc(-c3nc(Nc4ccnn4C)ncc3C)nc2C(=O)N1Cc1ccc(F)c(F)c1
*A* Criterion not met

*Q* Item: O=C1Nc2cc3[nH]nc(-c4ccncc4)c3cc2CN1Cc1ccccc1
*A* Criterion not met

*Q* Item: Nc1[nH]nc2nnc(-c3c(-c4ccccc4)nn4ccccc34)cc12
*A* Criterion met

* * *

- TGT: extracellular-signal-regulated kinase 2 (ERK2) E322K (Homo sapiens, UniProt P28482, E322K)
- Construct: gene MAPK1; recombinant ERK2 E322K
- ASSAY NOTES: biochemical
- Design: Differential scanning fluorimetry, SYPRO Orange, 2 uM ERK2, melting temperature shift with 12 uM inhibitor
- EXPERIMENTAL CONDITIONS: read-out: ΔTm E322K
QUANTITY KIND: ΔTm at 12 µM (°C)
Respond with the bare value in °C.

*Q* State the recorded ΔTm at 12 µM for this entry: CC(C)Nc1cc(-c2c[nH]c(C(=O)N[C@H](CO)c3cccc(Cl)c3)c2)c(Cl)cn1
*A* 4.6

*Q* Item: O=C(Nc1ccc2[nH]nc(-c3ccncc3)c2c1)[C@@H]1CCN(CC(=O)N2CCN(c3ccc(-c4ncccn4)cc3)CC2)C1
*A* 8.7

*Q* Item: Cn1nccc1Nc1nccc(-c2cc3c(s2)C(C)(C)N(CCN2CCOCC2)C3=O)n1
*A* 6.6

*Q* Item: Nc1[nH]nc2nnc(-c3c(-c4ccccc4)nn4ccccc34)cc12
*A* -1.3

*Q* Item: O=C1Nc2cc3[nH]nc(-c4ccncc4)c3cc2CN1Cc1ccccc1
*A* 9.2

*Q* Item: COC[C@H]1Cn2cc(-c3nc(Nc4ccnn4C)ncc3C)nc2C(=O)N1Cc1ccc(F)c(F)c1
*A* 10.2

* * *

- TGT: D321N (Homo sapiens, UniProt P28482, D321N)
- Construct: gene MAPK1; recombinant ERK2 D321N
- ASSAY NOTES: biochemical
- Set-up: Differential scanning fluorimetry, SYPRO Orange, 2 uM ERK2, melting temperature shift with 12 uM inhibitor
- EXPERIMENTAL CONDITIONS: read-out: ΔTm D321N
QUANTITY KIND: ΔTm at 12 µM (°C)
Respond with the bare value in °C.

*Q* State the recorded ΔTm at 12 µM for this entry: O=C1Nc2cc3[nH]nc(-c4ccncc4)c3cc2CN1Cc1ccccc1
*A* 13.6

*Q* Item: Nc1[nH]nc2nnc(-c3c(-c4ccccc4)nn4ccccc34)cc12
*A* 5.4

*Q* Item: Cn1nccc1Nc1nccc(-c2cc3c(s2)C(C)(C)N(CCN2CCOCC2)C3=O)n1
*A* 11.2

*Q* Item: CC(C)Nc1cc(-c2c[nH]c(C(=O)N[C@H](CO)c3cccc(Cl)c3)c2)c(Cl)cn1
*A* 9.5

*Q* Item: O=C(Nc1ccc2[nH]nc(-c3ccncc3)c2c1)[C@@H]1CCN(CC(=O)N2CCN(c3ccc(-c4ncccn4)cc3)CC2)C1
*A* 12.7

*Q* Item: COC[C@H]1Cn2cc(-c3nc(Nc4ccnn4C)ncc3C)nc2C(=O)N1Cc1ccc(F)c(F)c1
*A* 14.5

* * *

- TGT: D321V (Homo sapiens, UniProt P28482, D321V)
- Construct: gene MAPK1; recombinant ERK2 D321V
- ASSAY NOTES: biochemical
- Design: Differential scanning fluorimetry, SYPRO Orange, 2 uM ERK2, melting temperature shift with 12 uM inhibitor
- EXPERIMENTAL CONDITIONS: read-out: ΔTm D321V
Tag: 1 if measured ΔTm at 12 µM is not below 10 °C, -1 if it is.

*Q* Does the reported ΔTm at 12 µM for O=C1Nc2cc3[nH]nc(-c4ccncc4)c3cc2CN1Cc1ccccc1 fall at or above the 10 °C mark?
*A* 1

*Q* Item: Nc1[nH]nc2nnc(-c3c(-c4ccccc4)nn4ccccc34)cc12
*A* -1

*Q* Item: CC(C)Nc1cc(-c2c[nH]c(C(=O)N[C@H](CO)c3cccc(Cl)c3)c2)c(Cl)cn1
*A* -1

*Q* Item: COC[C@H]1Cn2cc(-c3nc(Nc4ccnn4C)ncc3C)nc2C(=O)N1Cc1ccc(F)c(F)c1
*A* 1

*Q* Item: O=C(Nc1ccc2[nH]nc(-c3ccncc3)c2c1)[C@@H]1CCN(CC(=O)N2CCN(c3ccc(-c4ncccn4)cc3)CC2)C1
*A* 1
